Assay: In vivo pharmacokinetics in rats, single intravenous injection or oral gavage
Settings: male, SD, plasma; Rat, oral gavage, 5mg/kg
// reported Tmax for each item listed
The response must be a number in h with no trailing unit.

Just so you know, measured Tmax for CC(C)c1nc(N2CCCC(F)(F)CC2)c(C(=O)Nc2ccc(F)c(C(N)=NO)c2)cc1Cl [Compound I-24] came out at 2

Form: compound = NC(=NO)c1cc(NC(=O)c2cc(Cl)c(C(F)(F)F)cc2N2CCCC(F)(F)CC2)ccc1F [Compound I-33] ; Tmax = 6

Recorded Tmax (compound COc1c([C@H]2[C@H](C(=O)Nc3ccnc(C(N)=O)c3)O[C@@](C)(C(F)(F)F)[C@H]2C)ccc(F)c1F [VX-548, reference compound] ): 0.5

Per the record, NC(=NO)c1cc(NC(=O)c2cc(Cl)c(C(F)(F)F)nc2N2CCCC(F)(F)CC2)ccc1F [Compound I-36] has Tmax of 4.3

Reported Tmax ( Cc1nc(N2CCCC(F)(F)CC2)c(C(=O)Nc2ccc(F)c(C(N)=NC#N)c2)cc1Cl [Compound I-3] ) = 6

----------
Test: In vivo pharmacokinetics in rats, single intravenous injection or oral gavage
Settings: male, SD, plasma; Rat, oral gavage, 5mg/kg
Binary classification by Cmax, with 400 ng/mL as an inclusive lower bound for true; all other cases are false.

Answered cases to consult:
Compound: NC(=NO)c1cc(NC(=O)c2cc(Cl)c(C(F)(F)F)cc2N2CCCC(F)(F)CC2)ccc1F [Compound I-33]
Discrete Label: true
--
Compound: CC(C)c1nc(N2CCCC(F)(F)CC2)c(C(=O)Nc2ccc(F)c(C(N)=NO)c2)cc1Cl [Compound I-24]
Discrete Label: false
--
Compound: NC(=NO)c1cc(NC(=O)c2cc(Cl)c(C(F)(F)F)nc2N2CCCC(F)(F)CC2)ccc1F [Compound I-36]
Discrete Label: false

Prompt: Determine whether measured Cmax meets or exceeds 400 ng/mL for Cc1nc(N2CCCC(F)(F)CC2)c(C(=O)Nc2ccc(F)c(C(N)=NC#N)c2)cc1Cl [Compound I-3]
Completion: false

Prompt: // inclusive: Cmax at least 400 ng/mL? input: COc1c([C@H]2[C@H](C(=O)Nc3ccnc(C(N)=O)c3)O[C@@](C)(C(F)(F)F)[C@H]2C)ccc(F)c1F [VX-548, reference compound]
Completion: false

----------
Experiment: In vivo pharmacokinetics in rats, single intravenous injection or oral gavage
Details: male, SD, plasma; Rat, oral gavage, 5mg/kg; bioavailability
Experimental: The in vivo pharmacokinetics in rats were evaluated via a single intravenous injection or oral gavage administration in this test example. • 1. […] Pharmacokinetic parameters in rat/mouse plasma were calculated for both administration routes, and the bioavailability of each compound in rats was also calculated. […]
Each entry below carries its reported bioavailability.
Answer format: value, then unit.

These recorded examples may help you get a feel for the data.
Compound: Cc1nc(N2CCCC(F)(F)CC2)c(C(=O)Nc2ccc(F)c(C(N)=NC#N)c2)cc1Cl [Compound I-3]
bioavailability: 62.4%

Compound: CC(C)c1nc(N2CCCC(F)(F)CC2)c(C(=O)Nc2ccc(F)c(C(N)=NO)c2)cc1Cl [Compound I-24]
bioavailability: 30.9%

Compound: NC(=NO)c1cc(NC(=O)c2cc(Cl)c(C(F)(F)F)nc2N2CCCC(F)(F)CC2)ccc1F [Compound I-36]
bioavailability: 38.9%

Compound: NC(=NO)c1cc(NC(=O)c2cc(Cl)c(C(F)(F)F)cc2N2CCCC(F)(F)CC2)ccc1F [Compound I-33]
bioavailability: 38.9%

// recorded bioavailability for COc1c([C@H]2[C@H](C(=O)Nc3ccnc(C(N)=O)c3)O[C@@](C)(C(F)(F)F)[C@H]2C)ccc(F)c1F [VX-548, reference compound] : 14%

Cited source for all entries: patent EP4700018A1
